Test system: NCI-H460 lung
Assay: NCI-60 one-dose screen, 48 h
Conditions: 10 µM unless noted
The panel holds about 83,000 compounds, 20% with a hit somewhere; the sample as a whole holds those more often. Activity calls are given as the source filed them. The calls were made as follows: active = growth percent below 10; inactive = the rest.
Write down the outcome that applies. Available outcomes: active, inactive

Use the examples below as a reference point.
* CC(=O)CCSc1ccc(OC(C)=O)cc1 | inactive
* O=C1Nc2c(ccc(Cl)c2Cl)/C1=C/c1ccc([N+](=O)[O-])cc1 | inactive
* N/C(=N\N=C\c1cc2ccccc2s1)N/N=C/c1cc2ccccc2s1 | inactive

Req: Query: recorded result category for COc1cc2c(cc1[N+](=O)[O-])-c1ccc([N+](=O)[O-])cc1/C2=N\O in this test
Resp: inactive

Req: Query: recorded result category for CC[C@H](C)[C@@H]1NC(=O)[C@H](Cc2ccc(O)cc2)N(C)C(=O)[C@H](Cc2ccccc2)NC(=O)CN(C)C(=O)[C@@H]2CCCN2C(=O)[C@@H](Cc2ccccc2)N(C)C(=O)[C@H](CC(C)C)NC1=O in this test
Resp: active

Req: Query: recorded result category for CC(=O)N1c2ccccc2NC2=C(C(=O)N(C)C2(C)C)C1C (configuration not stated) in this test
Resp: inactive

Req: Query: recorded result category for FCc1nc2nc(Cl)c(Cl)nc2[nH]1 in this test
Resp: inactive

Req: Query: recorded result category for COc1ccccc1Nc1cc(O)c2c(=O)cc(-c3ccccc3)oc2c1 in this test
Resp: inactive

Req: Query: recorded result category for CC(=O)O[C@H]1CC[C@@]2(C)[C@@H](CC[C@@H]3[C@@H]2CC[C@@]2(C)[C@H]3CC[C@]2(O)C(C)=O)C1 in this test
Resp: inactive

Req: Query: recorded result category for c1ccc(C2CC(c3cccc(Nc4ccncc4)c3)=NN2c2ccccc2)cc1 (configuration not stated) in this test
Resp: active

Req: Query: recorded result category for Cc1c2c(cc[n+]1Cc1ccccc1)c1ccc(OCC3CCCCC3)cc1n2CC1CCCCC1 in this test
Resp: active

Taken from PubChem BioAssay (NCI).
